molecular target: HLA-A*02:01_… (HLA-PEPTIDE target G8), recombinant complex (human, enzymatically biotinylated (BirA) for screening and functional assays); experiment: scFv PPE ELISA
Measurement kind: fold selective binding to target pHLA over minipool of negative control pHLAs

Note down fold selective binding to target pHLA over minipool of negative control pHLAs recorded for G8(5F02) scFv (scFv, V domains shown) VH: QVQLVQSGAEVKKPGASVKVSCKASGYTFTGYYIHWVRQAPGQGLEWMGVINPSGGSTTYAQKLQGRVTMTRDTSTSTVYMELSSLRSEDTAVYYCARDRDSSWTYYYYGMDVWGQGTTVTVSS VL: EIVMTQSPATLSVSPGERATLSCRASQSVGNSLAWYQQKPGQAPRLLIYGASTRATGIPARFSGSGSGTEFTLTISSLQSEDFAVYYCQQYGSSPYTFGQGTKVEIK
≥ 3 fold

// data source = patent US20240059797A1
